Values were extracted from patent US20250186391A1.

pIC50: −log10 of the molar value.
What follows is a record of pIC50 for Factor D (Homo sapiens (Human)).

- COMPOUND: "COc1ccc(CC(=O)O)c(OCc2nn(C)c3ccc(-c4ccnc(CN)c4F)cc23)c1 [Compound 316c]"
  SYSTEM TESTED: "Factor D (Homo sapiens (Human))"
  MEASUREMENT: "> 6.00"
- COMPOUND: "NCc1cccc(-c2cc3c(COc4ccccc4CC(=O)O)coc3c3ccoc23)c1F [Compound 287b]"
  SYSTEM TESTED: "Factor D (Homo sapiens (Human))"
  MEASUREMENT: "> 6.00"

Please find the next compound below.
stdin: Quick one: give measured pIC50 for Cc1ccc(OCc2coc3ccc(-c4cccc(CN)c4)cc23)c(CC(=O)O)c1 [Compound 105d]
stdout: > 6.00

====

SYSTEM TESTED: Factor D (Homo sapiens (Human))
Sequence (P00746 26-253): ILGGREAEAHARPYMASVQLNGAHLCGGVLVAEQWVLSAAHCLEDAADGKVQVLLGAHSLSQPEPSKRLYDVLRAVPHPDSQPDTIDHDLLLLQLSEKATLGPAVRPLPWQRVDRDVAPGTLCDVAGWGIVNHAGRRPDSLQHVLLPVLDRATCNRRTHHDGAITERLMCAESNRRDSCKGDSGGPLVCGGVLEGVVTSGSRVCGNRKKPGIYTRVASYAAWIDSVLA
# IC50 per record follows

Consider the worked cases shown below.
- COMPOUND: "COc1c(CN)cccc1-c1cc(OC)c2occ(COc3ccccc3CC(=O)O)c2c1 [Compound 324d]"
  IC50: "< 1000 nM"
- COMPOUND: "N[C@H](CO)c1cccc(-c2ccc3occ(COc4ccccc4CC(=O)O)c3c2)c1 [Compound 51c]"
  IC50: "< 1000 nM"
- COMPOUND: "CCCC(C(=O)O)c1ccccc1OCc1nn(C(C)C)c2ccc(-c3cccc(CN)c3)cc12 (stereo not shown) [Compound 246f]"
  IC50: "1000 to 10000 nM"

Please find the next compound below.
stdin: Fetch value of IC50 on Factor D (Homo sapiens (Human)) for COc1c(CN)cccc1-c1cc2c(COc3ccccc3CC(=O)O)cccc2o1 [Compound 300d] .
stdout: 1000 to 10000 nM

====

What follows is a record of pIC50 for Factor D (Homo sapiens (Human)).
pIC50: −log10 of the molar value.

- MOLECULE: "NCc1cccc(-c2ccc3c(c2)c(COc2ccccc2CC(=O)O)nn3-c2cccnc2)c1 [Compound 264c]"
  SYSTEM TESTED: "Factor D (Homo sapiens (Human))"
  pIC50: "> 6.00"
- MOLECULE: "NCc1cccc(-c2ccc3[nH]nc(COc4ccccc4CC(=O)O)c3c2)c1 [Compound 81a]"
  SYSTEM TESTED: "Factor D (Homo sapiens (Human))"
  pIC50: "> 6.00"
- MOLECULE: "CCc1oc2ccc(-c3cccc(CN)c3)cc2c1COc1cc(OC)ccc1CC(=O)O [Compound 225e]"
  SYSTEM TESTED: "Factor D (Homo sapiens (Human))"
  pIC50: "> 6.00"
- MOLECULE: "CC(C)n1nc(COc2ccccc2CC(=O)O)c2cc(-c3ccc(O)c(CN)c3)ccc21 [Compound 317d]"
  SYSTEM TESTED: "Factor D (Homo sapiens (Human))"
  pIC50: "5.00 to 6.00"
- MOLECULE: "NCc1cccc(-c2cc(CCC3CC3)c3occ(COc4ccccc4CC(=O)O)c3c2)c1 [Compound 170b]"
  SYSTEM TESTED: "Factor D (Homo sapiens (Human))"
  pIC50: "> 6.00"
- MOLECULE: "CN(Cc1cc(-c2cccc(CN)c2)cc2c(COc3ccccc3CC(=O)O)coc12)CC1CC1 [Compound 263e]"
  SYSTEM TESTED: "Factor D (Homo sapiens (Human))"
  pIC50: "> 6.00"
- MOLECULE: "NCc1cccc(-c2cccc3cc(C(=O)Nc4ccccc4CC(=O)O)oc23)c1 [Compound 21b]"
  SYSTEM TESTED: "Factor D (Homo sapiens (Human))"
  pIC50: "5.00 to 6.00"
- MOLECULE: "NCc1cccc(-c2cc(-c3cccc(CN)c3)c3oc(COc4ccccc4CC(=O)O)cc3c2)c1"
  SYSTEM TESTED: "Factor D (Homo sapiens (Human))"
  pIC50: "> 6.00"

stdin: Fetch value of pIC50 on Factor D (Homo sapiens (Human)) for NCc1cccc(-c2ccc3occ(COc4cc(CC5CC5)ccc4CC(=O)O)c3c2)c1 [Compound 153d] .
stdout: > 6.00

stdin: Fetch value of pIC50 on Factor D (Homo sapiens (Human)) for NCc1cccc(-c2ccc3occ(COc4cc(CN)ccc4CC(=O)O)c3c2)c1 [Compound 156c] .
stdout: > 6.00

stdin: Fetch value of pIC50 on Factor D (Homo sapiens (Human)) for NCc1cccc(-c2cc3c(COc4ccccc4CC(=O)O)ccc(C4CC4)c3o2)c1 [Compound 291g] .
stdout: 5.00 to 6.00

stdin: Fetch value of pIC50 on Factor D (Homo sapiens (Human)) for NCc1cccc(-c2cc3c(COc4ccccc4CC(=O)O)coc3c3occc23)c1 [Compound 229g] .
stdout: > 6.00

stdin: Fetch value of pIC50 on Factor D (Homo sapiens (Human)) for NCc1cccc(-c2ccc3occ(COc4cc(N)ccc4CC(=O)O)c3c2)c1 [Compound 84b] .
stdout: > 6.00
